test system: 786-0 renal; assay: NCI tumour cell line growth inhibition, 48 h
value-kind: TGI

{"compound": "Cc1cc(S(=O)(=O)Nc2nc3ccsc3c(=O)n2Cc2ccco2)c(S)cc1Cl", "observed-measurement": "> 100 µM"}
{"compound": "Oc1ccc(-c2nc3cc(C(F)(F)F)ccc3n2CC2CCCN3CCCCC23)cc1 (stereo unspecified)", "observed-measurement": "30.7 µM"}
{"compound": "O=C1CC2CCCCC2=C1O (stereo unspecified)", "observed-measurement": "> 100 µM"}
{"compound": "Cc1ccc(S(=O)(=O)Oc2ccc3c4c(c(=O)oc3c2)CCCCC4)cc1", "observed-measurement": "> 100 µM"}
{"compound": "CCOP(=O)(CC(=O)C1=C(O)C(CCCNC(=O)OC(C)(C)C)N(Cc2ccc(OC)c(OC)c2)C1=O)OCC (stereo unspecified)", "observed-measurement": "> 100 µM"}
{"compound": "CC(C)(C)c1cc(-c2ccc(-c3cc(C(C)(C)C)c(O)c(C(C)(C)C)c3)cc2)cc(C(C)(C)C)c1O", "observed-measurement": "> 100 µM"}
{"compound": "C(CCc1nnc2c(n1)CCCC2)Cc1nnc2c(n1)CCCC2", "observed-measurement": "> 100 µM"}
{"compound": "O=C(CSc1nnc(Cc2ccccc2)o1)Nc1ccc(Cl)cc1", "observed-measurement": "> 100 µM"}
{"compound": "C=C(CNCCc1ccc(O)cc1)[C@@H]1CC[C@]2(CO)CC[C@]3(C)[C@H](CC[C@@H]4[C@@]5(C)CCC(=O)C(C)(C)[C@@H]5CC[C@]43C)[C@@H]12", "observed-measurement": "2.95 µM"}
{"compound": "COc1cccc(/C=C/C(=O)c2ccc(Cl)cc2Cl)c1OC", "observed-measurement": "21.9 µM"}
{"compound": "N[C@@H]1c2c(Br)sc(Br)c2[C@H](O)[C@@H]1O", "observed-measurement": "> 100 µM"}
{"compound": "Cc1cccc(-c2cc(=O)c3ccc(C)nc3[nH]2)c1", "observed-measurement": "> 100 µM"}
{"compound": "N#C/C(=C/c1cccnc1)C(=O)c1ccccc1", "observed-measurement": "> 100 µM"}
{"compound": "O=C(O)CCC1COc2ccccc2O1 (stereo unspecified)", "observed-measurement": "> 10 µM"}
{"compound": "COc1ccc(-c2cc(-c3ccc(Nc4ccnc5cc(C(F)(F)F)ccc45)cc3)[nH]c(=O)c2C#N)c2ccccc12", "observed-measurement": "> 100 µM"}
{"compound": "CCC(C(=O)[O-])C(=O)[O-].CCC(C(=O)[O-])C(=O)[O-].N.N.NCCCCCN.[Pt+4].[Pt+4]", "observed-measurement": "> 100 µM"}
{"compound": "Nc1nc2c(c3ncccc13)C(c1cccc(Cl)c1)Cc1ncccc1-2 (stereo unspecified)", "observed-measurement": "26.5 µM"}
{"compound": "COc1ccc(-c2cnc(-c3ccc(F)cc3)[nH]2)cc1", "observed-measurement": "12.3 µM"}
{"compound": "C=C1CC/C=C(/C(=O)O)CC[C@H]2[C@@H]1CC2(C)C", "observed-measurement": "> 100 µM"}
{"compound": "Cn1cc2c(n1)c(N/N=C/c1ccccc1)nn1nnnc21", "observed-measurement": "> 100 µM"}
{"compound": "O=C1CN(c2ccc(Cl)cc2)C(=O)CN1CCN1CC(=O)N(c2ccc(Cl)cc2)CC1=O", "observed-measurement": "> 100 µM"}
{"compound": "Cc1ccc(S(=O)(=O)N2CCSCCSCCN(S(=O)(=O)c3ccc(C)cc3)CCN(S(=O)(=O)c3ccc(C)cc3)CC2)cc1", "observed-measurement": "> 100 µM"}
{"compound": "COc1ccc(C(=O)N2CCN(c3ccc4c(c3)OCC(=O)N4)CC2)cc1", "observed-measurement": "> 100 µM"}
{"compound": "C[n+]1c2ccccc2c(CNC(CCC(N)=O)C(=O)O)c2ccccc21 (stereo unspecified)", "observed-measurement": "3.22 µM"}
{"compound": "O=C(O)c1cc2ccccc2c(N=Nc2c([N+](=O)[O-])cc([N+](=O)[O-])cc2S(=O)(=O)O)c1O", "observed-measurement": "> 100 µM"}
{"compound": "COC(=O)[C@]12CC[C@@H](C)[C@H](C)[C@@H]1C1=CC[C@@H]3[C@@]4(C)C(C=O)=C[C@@](C)(COC(C)=O)[C@@H]4[C@H](O)C[C@@]3(C)[C@]1(C)CC2", "observed-measurement": "4.26 µM"}
